Data credit: paper PMC6028903

assay: Solubility of CyMe4-BTBP in GANEX solvents (70% vol diluent, 30% vol TBP), UV-VIS of the Fe2+ complex; type: physicochemical; details: GANEX solvent cyclohexanone/TBP, 25 °C, organic solvent or mixture, thermodynamic from solid, Cyclohex./TBP, 70% vol diluent and 30% vol TBP, 298 K; read-out: CyMe 4 -BTBP solubility at 298 K
property: solubility at 3 days (mM)
Give the quantity in mM, number only.

Exam item: For CC1(C)CCC(C)(C)c2nc(-c3cccc(-c4cccc(-c5nnc6c(n5)C(C)(C)CCC6(C)C)n4)n3)nnc21 , write its solubility at 3 days.
Marked response: 180

====

assay: Solubility of CyMe4-BTBP in GANEX solvents (70% vol diluent, 30% vol TBP), UV-VIS of the Fe2+ complex; assay type: physicochemical; conditions: GANEX solvent FS-13/TBP, organic solvent or mixture, thermodynamic from solid, 70% vol FS-13 and 30% vol TBP, 4 mol/L NaCl in Milli-Q water instead of nitric acid, single sample; read-out: CyMe 4 -BTBP solubility
property: solubility at 3 days (mM)
Give the quantity in mM, number only.

Exam item: For CC1(C)CCC(C)(C)c2nc(-c3cccc(-c4cccc(-c5nnc6c(n5)C(C)(C)CCC6(C)C)n4)n3)nnc21 [CyMe 4 -BTBP] , write its solubility at 3 days.
Marked response: 20

====

assay: Solubility of CyMe4-BTBP in GANEX solvents (70% vol diluent, 30% vol TBP), UV-VIS of the Fe2+ complex; type: physicochemical; conditions: GANEX solvent FS-13/TBP, organic solvent or mixture, thermodynamic from solid, 70% vol FS-13 and 30% vol TBP, 4 mol/L hydrochloric acid instead of nitric acid, single sample; read-out: CyMe 4 -BTBP solubility
property: solubility at 3 days (mM)
Give the quantity in mM, number only.

Exam item: For CC1(C)CCC(C)(C)c2nc(-c3cccc(-c4cccc(-c5nnc6c(n5)C(C)(C)CCC6(C)C)n4)n3)nnc21 , write its solubility at 3 days.
Marked response: 30

====

assay: Solubility of CyMe4-BTBP in GANEX solvents (70% vol diluent, 30% vol TBP), UV-VIS of the Fe2+ complex; assay type: physicochemical; details: GANEX solvent FS-13/TBP, organic solvent or mixture, thermodynamic from solid, 70% vol FS-13 and 30% vol TBP, Milli-Q water instead of nitric acid, single sample; read-out: CyMe 4 -BTBP solubility
property: solubility at 3 days

Exam item: For CC1(C)CCC(C)(C)c2nc(-c3cccc(-c4cccc(-c5nnc6c(n5)C(C)(C)CCC6(C)C)n4)n3)nnc21 , write its solubility at 3 days.
Marked response: 15 mM

====

assay: Solubility of CyMe4-BTBP in GANEX solvents (70% vol diluent, 30% vol TBP), UV-VIS of the Fe2+ complex; format: physicochemical; conditions: GANEX solvent 1-octanol/TBP, 25 °C, organic solvent or mixture, thermodynamic from solid, Octanol/TBP, 70% vol diluent and 30% vol TBP, 298 K; read-out: CyMe 4 -BTBP solubility at 298 K
property: solubility at 3 days (mM)
Give the quantity in mM, number only.

Exam item: For CC1(C)CCC(C)(C)c2nc(-c3cccc(-c4cccc(-c5nnc6c(n5)C(C)(C)CCC6(C)C)n4)n3)nnc21 , write its solubility at 3 days.
Marked response: 13
